All figures here come from ChEMBL document CHEMBL5058564.

System: Fibroblast
experimental.details: Incucyte cell viability with human fibroblast; further: unitless GR value; below 1 slowed growth and below 0 cell loss
Format: toxicity, cell-based
study.conditions: 24 h, 10 µM, compound concentration 10 uM, replicate number 2, timepoint 24 hours
Consider the following partition of reported Growth Rate into named classes: low bracket (below 0.3), middle bracket (0.3 to below 0.8), high bracket (0.8 or more)

molecule	measurement.target	class.name
O=C(CCCc1ccccc1)Nc1nc2ccccc2c(=O)s1	Fibroblast	low bracket
CCCCNNC(=O)c1ccc(Br)cc1	Fibroblast	high bracket
CN(C)CCCc1cc(C(=O)Nc2ccc(-c3ccncc3)cc2)ccc1O.Cl.Cl	Fibroblast	middle bracket
CC(C)Cc1ccc([C@@H](C)C(=O)NS(C)(=O)=O)cc1 [REPARIXIN]	Fibroblast	high bracket
COc1cc2nc(N3CCN(C(=O)C4CCCO4)CC3)nc(N)c2cc1OC.Cl.O.O (stereo not drawn) [TERAZOSIN HYDROCHLORIDE]	Fibroblast	middle bracket
C[C@@](Cc1c[nH]c2ccccc12)(NC(=O)Nc1ccc([N+](=O)[O-])cc1)C(=O)NCC1(c2ccccn2)CCCCC1	Fibroblast	low bracket
CN(C(=O)c1ccccc1)c1cc(N(C)c2ccc3c(c2)CCc2ccc(C(=O)NCCN4CCOCC4)cc2C3=O)ccc1F [FM-743]	Fibroblast	low bracket
CN(c1ncccc1CNc1ccnc(-c2nc3c(F)c(Cl)ccc3[nH]2)n1)S(C)(=O)=O	Fibroblast	high bracket
COc1ccc2cc(S(=O)(=O)N[C@H](CC(=O)N[C@H](Cc3ccc(CN4[C@H](C)CCC[C@@H]4C)cc3)C(=O)N(C)C(C)C)c3ccc4c(c3)OCO4)ccc2c1.Cl	Fibroblast	low bracket
Cc1cc(C)cc([C@H]2c3cc(C)ccc3NC(=O)CN2C(=O)c2ccc(Br)s2)c1	Fibroblast	high bracket
C[C@@H]1CN(Cc2ccc(F)cc2)CCN1C(=O)COc1ccc(Cl)cc1NC(N)=O [BX 471 FREE BASE]	Fibroblast	middle bracket
CC(C)COc1ccc(CNC(=O)N(Cc2ccc(F)cc2)C2CCN(C)CC2)cc1 [PIMAVANSERIN]	Fibroblast	low bracket
NC(=O)c1cccc(-c2cc(Nc3ccc(OC(F)(F)F)cc3)ncn2)c1	Fibroblast	middle bracket
CC(=O)O[C@H]1C(=O)[C@@]2(C)[C@H]([C@H](OC(=O)c3ccccc3)[C@]3(O)C[C@H](OC(=O)[C@H](O)[C@@H](NC(=O)c4ccccc4)c4ccccc4)C(C)=C1C3(C)C)[C@]1(OC(C)=O)CO[C@@H]1C[C@@H]2O [PACLITAXEL]	Fibroblast	low bracket
Cc1ccc(OCC(O)C(C)NC(C)C)c2c1CCC2.Cl (stereo not drawn)	Fibroblast	middle bracket
NC(N)=Nc1nc(CSCCC(N)=NS(N)(=O)=O)cs1 [FAMOTIDINE]	Fibroblast	high bracket
